Every entry's value here was drawn from paper PMC4414715.

Biological target: ALDH5A1 (Homo sapiens)
Sequence (P51649 48-535): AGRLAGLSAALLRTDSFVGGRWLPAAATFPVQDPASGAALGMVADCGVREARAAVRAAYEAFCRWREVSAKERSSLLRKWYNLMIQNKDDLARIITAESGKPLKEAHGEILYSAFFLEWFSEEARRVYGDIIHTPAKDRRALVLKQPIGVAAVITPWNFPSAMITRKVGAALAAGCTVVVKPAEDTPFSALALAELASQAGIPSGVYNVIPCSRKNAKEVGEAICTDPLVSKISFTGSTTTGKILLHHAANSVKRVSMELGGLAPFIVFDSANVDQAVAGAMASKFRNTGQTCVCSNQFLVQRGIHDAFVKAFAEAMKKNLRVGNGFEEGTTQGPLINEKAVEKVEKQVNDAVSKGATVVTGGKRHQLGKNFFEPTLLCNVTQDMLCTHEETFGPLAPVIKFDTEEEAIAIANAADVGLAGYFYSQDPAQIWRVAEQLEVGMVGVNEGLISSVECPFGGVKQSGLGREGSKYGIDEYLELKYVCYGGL
quantity-kind: IC50 (µM)
Express it in µM; write the number only.

IN: Entry CCN(CC)c1ccc(C=O)cc1 [DEAB] has what IC50?
OUT: 13
